target: T1, recombinant SARS-CoV-2 Spike RBD domain, BA.2 variant (SARS-CoV-2); experiment: competition ELISA, blocking of RBD binding to ACE2 ectodomain
T1 construct: also called RBD BA.2. variant
For each of the binders below, state its Blocking %.
The answer is to be given in %; state only the numeric part.

Form: binder = SPK002M A4 antibody (antibody, human IgG1, kappa, V domains shown) VH: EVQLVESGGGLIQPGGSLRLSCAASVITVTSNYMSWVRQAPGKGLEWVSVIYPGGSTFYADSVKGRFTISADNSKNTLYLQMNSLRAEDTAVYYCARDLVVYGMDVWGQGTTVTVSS VL: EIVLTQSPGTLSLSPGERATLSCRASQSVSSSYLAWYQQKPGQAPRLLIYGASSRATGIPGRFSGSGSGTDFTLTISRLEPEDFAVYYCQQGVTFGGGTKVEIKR ; Blocking % = 93

Form: binder = SPK002M C1 antibody (antibody, human IgG1, kappa, V domains shown) VH: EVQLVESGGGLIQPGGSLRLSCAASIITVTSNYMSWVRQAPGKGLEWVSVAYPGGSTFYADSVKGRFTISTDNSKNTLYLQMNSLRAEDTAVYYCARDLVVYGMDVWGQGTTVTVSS VL: EIVLTQSPGTLSLSPGERATLSCRASQSVSDSYLAWYQQKPGQAPRLLIYGASSRATGIPGRFSGSGSGTDFTLTISRLEPEDFAVYYCQYGVTFGGGTKVEIKR ; Blocking % = 95

Form: binder = SPK002M C2 antibody (antibody, human IgG1, kappa, V domains shown) VH: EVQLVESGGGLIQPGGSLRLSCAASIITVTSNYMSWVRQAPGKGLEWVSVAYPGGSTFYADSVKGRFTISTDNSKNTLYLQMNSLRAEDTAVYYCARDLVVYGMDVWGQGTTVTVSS VL: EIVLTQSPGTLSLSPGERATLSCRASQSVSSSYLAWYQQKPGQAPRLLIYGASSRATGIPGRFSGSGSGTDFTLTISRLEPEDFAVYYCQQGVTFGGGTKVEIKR ; Blocking % = 93

Data provenance: patent US12281155
